measurement_target: T1, human natriuretic peptide clearance receptor-C (human, UniProt P17342 27-541)
T1 construct: whole, on cells; also called hNPR-C; human NPR-C
T1 sequence (looked up): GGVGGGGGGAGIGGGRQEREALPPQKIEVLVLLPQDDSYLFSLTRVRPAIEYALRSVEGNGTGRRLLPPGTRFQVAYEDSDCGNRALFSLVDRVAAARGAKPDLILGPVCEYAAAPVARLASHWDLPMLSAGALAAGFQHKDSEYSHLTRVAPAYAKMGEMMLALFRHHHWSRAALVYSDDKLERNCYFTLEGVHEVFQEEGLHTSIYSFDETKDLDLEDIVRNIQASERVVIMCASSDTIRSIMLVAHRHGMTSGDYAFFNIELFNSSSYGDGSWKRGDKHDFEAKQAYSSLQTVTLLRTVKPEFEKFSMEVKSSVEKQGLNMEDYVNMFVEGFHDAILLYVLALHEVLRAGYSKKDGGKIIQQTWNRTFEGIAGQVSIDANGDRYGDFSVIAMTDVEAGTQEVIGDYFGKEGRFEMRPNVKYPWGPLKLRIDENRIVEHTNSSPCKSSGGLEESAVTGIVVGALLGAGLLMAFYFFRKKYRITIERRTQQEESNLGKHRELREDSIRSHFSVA
assay_summary: competition binding, Table I; tracer and receptor format not given
Bridges are numbered along the chain shown (N, C = ends). Primed or numbered codes have the meaning given here. Where no end group is shown, it is not given here. [ ]: non-standard residue; d: D form. Phg′ = phenylglycine, D or L; Mpa = O=C(O)CCS
This listing pairs binders with measured IC50.
All answers are understood in µM, so give the number only.

>>> observed_measurement("SLRRSSCF[dA]GDIDRIRAQSGLGCNSFRY (disulfide 7-23, Cys7-Cys23 disulfide; also called hANF(1-28) G9(d-Ala), R11D, M12I, G16R) [ANF 90]")
6.14
>>> observed_measurement("[Mpa]F[dA]GSIDRIRAQSGLGCNSFRY (disulfide 1-17; not fully specified; printed as Mpa-Phe-(D-Ala)-Gly-Ser-Ile-Asp-Arg-Ile-Arg-Ala-Gln-Ser-Gly-Leu-Gly-Cys-Asn-Ser-Phe-Arg-Tyr) [ANF 81]")
3.86
>>> observed_measurement("SLRRSSC[Phg′]TGSIDRIRAQSGLGCNSFRY (disulfide 7-23; also: Phg configuration D or L not given here) [ANF 100-1]")
3.23

[in] For SLRRSSC[dS]FTGSIDRIRAQSGLGCNSFRY (disulfide 7-24) [ANF 74] , write its IC50.
[out] 10

[in] For SLRRSSCFGGRIDRIRAQSGLGCNSFRY (disulfide 7-23, Synthetic; Cys7-Cys23 disulfide; also called hANF(1-28) M12I, G16R) [ANF 24] , write its IC50.
[out] 0.00564
